Known melting point of a selection of molecules

Recorded results for 8 molecules are shown here.
Reported melting point, molecule Oc1ccc(-c2nc(-c3ccccc3)cs2)cc1 : ____ 148 to 150 °C

Then O=C(O)c1c(C(F)(F)F)n[nH]c1C(F)(F)F ? 255 to 257 °C

# iterate: COc1ccc(OCc2nc(C=O)cs2)cc1 95 to 97 °C

Note, next up: COc1ccc(-c2nc(CC(=O)O)cs2)cc1OC 162 to 164 °C

Continue with CCN(CC)S(=O)(=O)c1ccc(NC(=O)CCl)cc1 103 to 105 °C

Request: NNC(=O)c1n[nH]c(=O)c2ccccc12 239 to 241 °C

Moving on to O=C(CCl)N1CC=C(c2c[nH]c3ccccc23)CC1 172 to 174 °C

Then this molecule: CSc1nc2[nH]cnc(=O)c2s1 269 to 271 °C

---
Recorded melting point for CC(Cl)C(=O)Nc1ccccc1[N+](=O)[O-] (stereo not drawn) , please? 71 to 73 °C

// next record O=c1ccccn1CCOc1ccc(Br)cc1 111 to 113 °C

Query CC(O)C1NC(=O)NC1=O (stereo not drawn) next 179 to 181 °C

Again, but for Cc1nc2cc(N)ccc2n1C 164 to 166 °C

One more molecule: COC(=O)C(=O)CC(=O)c1c(F)cccc1F 88 to 90 °C

Same for Cc1cc(C(=O)CCl)c(F)cc1F 80 to 82 °C

Cool, now CC(NC(=O)OC(C)(C)C)C(O)Cc1ccccc1 (stereo not drawn) 116 to 118 °C

Also O=C(O)C1CC12CCOc1ccccc12 (stereo not drawn) ? 159 to 161 °C

Can you check Nc1ccc2[nH]c(=O)sc2c1 next? 221 to 223 °C

Then this molecule: Cc1ccc(-c2csc(NC(=O)CCl)n2)cc1C 179 to 181 °C

// query: Cc1nc([N+](=O)[O-])cn1CC(=O)O 244 to 246 °C

* * *

The following molecules are shown together with reported melting point values.

What does the data say about its melting point? Entry: COc1ccc(Cn2[nH]cc(Br)c2=N)cc1 92 to 94 °C

// next record ClCc1coc(-c2cccc(Cl)c2)n1 76 to 78 °C

Then this molecule: CC1=C(C(=O)O)CCC1 130 to 132 °C

Proceed to Cc1nccn1-c1ccc(Cl)nn1 122 to 124 °C

Param item: O=C(O)C1C2C=CC(C2)C1C(=O)N1CCN(CCO)CC1 (stereo not drawn) 192 to 194 °C

Try this molecule too: CCOC(=O)c1cnn(C)c1-c1ccccc1 59 to 61 °C

Next:
Quick check: melting point of COc1ccc(COc2cccc(F)c2)cc1N ? 57 to 59 °C

Also, O=C(O)c1cc2ccc(F)cc2[nH]1 please. 227 to 229 °C

Same for CC(SCc1ncc(-c2ccc(Cl)cc2)o1)C(=O)O (stereo not drawn) 129 to 131 °C

Same thing, different molecule: O=c1cc(CCl)c2cc3c(cc2o1)CCC3 142 to 144 °C

Do the same for O=C1C(=O)N(Cc2ccccc2)c2ccccc21 please 92 to 94 °C

// next record Nc1cc(C(=O)O)ccc1Oc1ccccc1 146 to 148 °C

What would you report for O=C1CCC(c2ccccc2)N1 (stereo not drawn) ? 97 to 99 °C

Next entry: CN(C(=O)c1cccc(C(=O)O)c1)c1ccccc1 170 to 172 °C

Ok, now Cc1cc(CCC(=O)O)c(C)s1 57 to 59 °C

// same read-out, input: CC(=O)CC(=O)CCN1C(=O)c2ccccc2C1=O 104 to 106 °C

Okay, and NCc1ccc(OCCOc2ccc(Cl)cc2)cc1 ? 130 to 132 °C

Thanks! And Nc1nc(C(F)(F)F)cs1 ? 66 to 68 °C

COc1ccccc1NC(=O)CC(=O)Nc1ccccc1OC , same question. 154 to 156 °C

Field entry: CC1(C)CCC(CC(=O)O)c2ccccc21 (stereo not drawn) 81 to 83 °C

Next molecule: Cc1ccc(-n2cnnn2)cc1NC(=O)OCC(F)(F)F 199 to 201 °C

What do you have for NNc1nc(-c2cccnc2)no1 ? 169 to 171 °C

Repeat for the following molecule: CCOC(=O)c1cc(Br)cc(S(N)(=O)=O)c1 119 to 121 °C

Cool, now Nc1ccc(OCC(F)(F)F)c(C(=O)O)c1 190 to 192 °C

And then O=c1[nH]c(-c2ccc3c(c2)OCCO3)cs1 , what is it? 229 to 231 °C

* * *

experimental-endpoint: melting point

// known answers, use as guide
Reported melting point, compound CC(C)(C)OC(=O)NNC(=O)OC(C)(C)C : ____ 123 to 126 °C

Same read-out for CC(=O)c1ccoc1 ? 52 to 54 °C

# repeat for Cc1n[nH]c(C)c1S(=O)(=O)N1CCN(C)CC1 187 to 189 °C

Another compound: O=c1cc(CO)c2ccc(O)cc2o1 221 to 223 °C

Another compound to look at: COc1ccc2c(c1)C=C(C#N)CO2 72 to 74 °C

More entries:
// melting point lookup, key: Cc1ccc(C)c(-c2nc(N)sc2C)c1 92 to 94 °C

Param item: Nc1cc(C2CCC2)nn1-c1ccccc1 87 to 89 °C

One more compound: CCOC(=O)C(=O)Nc1ccc(C)cc1 64 to 66 °C

Follow-up entry: O=C(NCc1ccccc1)c1ccc(-n2ccnc2S)cc1 216 to 218 °C

Next compound up: O=C(O)c1ccc(Cl)c(S(=O)(=O)N2CCc3ccccc32)c1 195 to 197 °C

Next compound up: O=C(Nc1ccccc1)OCC(F)(F)F 62 to 65 °C

Try this compound next: CC1(c2cccc(C#N)c2)NC(=O)NC1=O (stereo not given) 202 to 204 °C

// next record CCN(CC)S(=O)(=O)c1cc(C(=O)O)ccc1C 142 to 144 °C

Record: C=CCn1c(S)nc2cc3ccccc3cc2c1=O 285 to 287 °C

Another: O=C1C(=O)N(Cc2ccccc2Cl)c2ccccc21 130 to 132 °C

Next: O=C(O)CCCCCN1C(=O)CSC1=S 85 to 87 °C

Please give the result for CC(Cl)C(=O)NC(=O)Nc1ccccc1F (stereo not given) too. 135 to 137 °C

Subsequent entry: CNS(=O)(=O)N1CCc2ccccc2C1 88 to 90 °C

Moving on to the next compound: Cc1ccc(CNC(=O)CC#N)cc1 127 to 129 °C

* * *

Quick list: melting point per entry.

# example entries with known answers
Please give the measured melting point for this molecule: O=C(O)c1cccn2ccnc12 266 to 268 °C

Repeat for the following molecule: COc1ccc(-n2c(S)nc3sc4c(c3c2=O)CCCC4)cc1 312 to 314 °C

Entry Nc1ccc(C2CC2)nn1 please 135 to 137 °C

Now this one: Cc1cnc(Cl)cc1O 173 to 175 °C

Also O=C(O)c1cc2ccccc2c(OCC(F)(F)F)n1 ? 206 to 208 °C

Further cases:
Entry under review: O=C(O)CCCNC(=O)c1ccc2[nH]nnc2c1 . Reported melting point? 230 to 232 °C

* * *

Here, each record is paired with measured melting point data.

Example entries begin here.
Given the entry CCOC(=O)c1sc(-c2ccc(OC)cc2)cc1N , report its measured melting point. 120 to 122 °C

And the next one, COCc1ccccc1C(=O)O ? 94 to 96 °C

Another compound to check: O=C(O)c1ccc(OCCO)cc1 177 to 179 °C

Try Nc1ccc(SCCCO)cc1 next. 62 to 64 °C

Follow-up item: CC(C)(C)NC(=O)C1CCCCN1 (centres undefined) 79 to 81 °C

***
Given the entry O=[N+]([O-])c1cc(S(=O)(=O)N2CCCCC2)ccc1Cl , report its measured melting point. 61 to 63 °C

And O=C(c1cn[nH]c1)N1CCN(c2ccccn2)CC1 ? 194 to 196 °C

Next compound up: CC(C)(C(=O)O)C1CCCCC1 64 to 66 °C

* * *

experimental-endpoint: melting point

The cases that follow already have their melting point on record.
# query: melting point of entry COc1ccc(-c2csc3nc(C)[nH]c(=O)c23)cc1OC 249 to 251 °C

Try this molecule too: CS(=O)c1cccc(N)c1 (stereo not drawn) 110 to 112 °C

Try this molecule next: [N-]=[N+]=Nc1ccc(Cl)c(Cl)c1 32 to 34 °C

Try this molecule next: Cc1c(N)cccc1C(=O)N1CCOCC1 106 to 108 °C

Cc1c(C(=O)O)nnn1-c1ccc(Br)cc1Cl ? 163 to 165 °C

Input Nc1ccc2c(c1)C(=O)NCC2 119 to 121 °C

Would you kindly repeat that for O=C(O)C1CCCN1C(=O)Nc1ccc(F)cc1 (stereo not drawn) ? 163 to 165 °C

Also, Cc1cc(Cl)c2cc(F)c(F)c(F)c2n1 please. 73 to 75 °C

Entry Nc1cc(S(=O)(=O)NC2CC2)ccc1O please 119 to 121 °C

Do the same for O=C(O)CN(Cc1ccccc1)Cc1ccccc1 please 195 to 197 °C

Read the next record carefully.
Endpoint output: melting point of NCc1cccc(NC(=O)C2CCC2)c1 . Value? 61 to 63 °C
